These measurements were taken from patent US20240415914A1.

Stability of Cannabinoids in AB Red by entry:
- Protocol notes: Stability of cannabinoid and Vitamin E components of Beverage 2 (AB Red) stored at 8° C. and 21-25° C., LCMSMS over 570 days
- Measurement setup: 21-25° C., 90 days
Readout: Stability of Cannabinoids in AB Red (µg/mL)

{"columns": ["Compound", "Readout", "Val"],
 "data": [
  ["CCCCCc1cc(O)c2c(c1)OC(C)(C)c1ccc(C)cc1-2", "Stability of Cannabinoids in AB Red", 2.75],
  ["CCCCCc1cc(O)c2c(c1)OC(C)(C)[C@@H]1CCC(C)=C[C@@H]21 [D9 THC, delta-9-tetrahydrocannabinol, reference compound]", "Stability of Cannabinoids in AB Red", 12.8],
  ["CCCCCc1cc(O)c2c(c1)OC1(C)CCC3C1C2C3(C)C (stereo not drawn)", "Stability of Cannabinoids in AB Red", 0.49],
  ["CCCCCc1cc2c(c(O)c1C(=O)O)[C@@H]1C=C(C)CC[C@H]1C(C)(C)O2 [D9 THCA, delta-9-tetrahydrocannabinolic acid]", "Stability of Cannabinoids in AB Red", 1.34],
  ["CCCCCc1cc(O)c2c(c1)OC(C)(CCC=C(C)C)C=C2 (stereo not drawn)", "Stability of Cannabinoids in AB Red", 0.28],
  ["CCCc1cc(O)c2c(c1)OC(C)(C)[C@@H]1CCC(C)=C[C@@H]21 [THCV, delta-9-tetrahydrocannabivarin]", "Stability of Cannabinoids in AB Red", 3.05],
  ["C=C(C)[C@@H]1CCC(C)=C[C@H]1c1c(O)cc(CCC)cc1O", "Stability of Cannabinoids in AB Red", 0.19],
  ["C=C(C)[C@@H]1CCC(C)=C[C@H]1c1c(O)cc(CCCCC)c(C(=O)O)c1O", "Stability of Cannabinoids in AB Red", 1.60],
  ["CCCCCc1cc(O)c(C/C=C(\\C)CCC=C(C)C)c(O)c1", "Stability of Cannabinoids in AB Red", 4.55]
]}
